- System: P94_40
- method: qHTS profiling for inhibitors of Plasmodium falciparum proliferation (AID 504749); further: nearly all actives have a fitted effect of over 60% in size
- conditionSet: P. falciparum in erythrocytes, SYBR Green DNA, 72 h; series mostly up to 28.7 µM
Results filed as inconclusive are left out. Activity calls are given as the source filed them. The call rests on the fitted dose curve; in most records, active means well fitted inhibition curve with a large enough effect; inconclusive means small, poorly fitted or top-dose-only effect; inactive means flat fitted curve, though single readings scatter.
In this exercise, the only acceptable responses are T (active), F (inactive)

compound	system	assignedCategory
CN(C)C(=O)Oc1cc(OC(=O)N(C)C)cc([C@@H](O)CNC(C)(C)C)c1	P94_40	F
O=C1C=C2C=CC3C[C@@]2(O1)C1CCCCN31 (stereo not given in full)	P94_40	T
CCNC[C@H](O)c1cccc(O)c1	P94_40	F
CN[C@@H](C)[C@H]1CC[C@@H](N)[C@@H](O[C@@H]2[C@@H](O)[C@@H](O[C@H]3OC[C@@](C)(O)[C@@H](NC)[C@@H]3O)[C@H](N)C[C@@H]2N)O1 (tested in a mixture with another compound)	P94_40	F
Clc1ccc([C@@H](OCCN2CCCCC2)c2ccccc2)cc1	P94_40	T

Prompt: Which result was noted for this compound in the test: C=CC1CN2CCC1CC2C(OC(=O)OCC)c1ccnc2ccc(OC)cc12 (stereo not given)
Response: T

Prompt: Also, C[C@H](NC(C)(C)C)C(=O)c1cccc(Cl)c1 please.
Response: F

Prompt: CNC[C@H](O)c1ccc(O)cc1 , same question.
Response: F

Prompt: Query C[C@H](N)[C@@H](O)c1ccccc1 next
Response: F

Prompt: Do the same for C[C@]12CC[C@H](O)C[C@H]1CCC1C2CC[C@]2(C)[C@@H](c3ccc(=O)oc3)C[C@H]3O[C@]132 (stereo not given in full) please
Response: F

---

- method: MultiTox-Fluor Cytotoxicity Assay - LYMP1-001 - Live Cells (AID 947)
- conditionSet: LYMP1-001 lymphoblastoid cells, live-cell protease fluorescence viability; series mostly up to 92.2 µM
Inconclusive results are not listed. Activity calls are given as the source filed them. Calls follow the shape of the dose curve; as a rule, active = well fitted cell-killing curve with a large enough effect; inconclusive = small, poorly fitted or top-dose-only effect; inactive = flat fitted curve, though single readings scatter.
I would appreciate it if you answered using one of these outcomes: active, inactive

Would you please look over these solved cases?
                                   compound  assignedcategory
0              CCC[CH2][Sn]([Cl])([Cl])[Cl]          inactive
1                   Cc1cccc([N+](=O)[O-])c1          inactive
2                   CCNc1nc(Cl)nc(NC(C)C)n1          inactive
3                        Clc1nc(Cl)nc(Cl)n1          inactive
4     Clc1cc(Cl)c(-c2cc(Cl)c(Cl)cc2Cl)cc1Cl          inactive
5  ClC1=C(Cl)C2(Cl)C3C4CC(C5OC45)C3C1(Cl)C2(Cl)Cl (centres undefined)            active

Prompt: Check the results log: what was the call for Clc1cccc(C(Cl)(Cl)Cl)n1 ?
Response: inactive

Prompt: Then this compound: ClC(Cl)=C(Cl)C(Cl)=C(Cl)Cl
Response: inactive

Prompt: Would you kindly repeat that for C=CC(=O)OCC ?
Response: inactive

---

- method: SDT Cancer Cell Toxicity qHTS against the NCATS CANVASS Library (AID 1347365); further: nearly all actives have a fitted effect of over 60% in size
- conditionSet: SDT dog glioma viability, ATP luminescence, 72 h; series mostly up to 46.1 µM
Inconclusive results are not listed. Activity calls are given as the source filed them. Calls follow the shape of the dose curve; as a rule, active = well fitted cell-killing curve with a large enough effect; inconclusive = small, poorly fitted or top-dose-only effect; inactive = flat fitted curve, though single readings scatter.
Outcome (select one): active, inactive

compound	assignedCategory
C=C[C@H]1CN2CCc3c([nH]c4cccc(OC)c34)[C@@H]2C[C@@H]1/C(=C\OC)C(=O)OC	active
C=CC(C)(C)[C@@]12C[C@H]3C(=O)N/C(=C/c4cnc[nH]4)C(=O)N3[C@@H]1Nc1ccccc12	inactive

Prompt: What call does the record list for COC1=C(C2=C(OC)C(=O)c3cc4c(c(O)c3C2=O)C(=O)O[C@H](C)C4)C(=O)c2c(cc3c(c2O)C(=O)O[C@H](C)C3)C1=O ?
Response: inactive

Prompt: Repeat for the following compound: CCC(=O)N[C@@H](C[C@H](C)C(Cl)(Cl)Cl)C(=O)N1C(=O)C=C(OC)[C@@H]1C[C@H](C)C(Cl)Cl
Response: inactive

Prompt: Again, but for CO[C@H]1C[C@H](O[C@H]2[C@@H](O)C[C@H](O[C@H]3CC[C@]4(C=O)[C@H]5CC[C@]6(C)C(C7=CC(=O)OC7)CC[C@]6(O)[C@@H]5CC[C@]4(O)C3)O[C@@H]2C)O[C@H](C)[C@H]1O[C@H]1C[C@@H](OC)[C@@H](O[C@@H]2O[C@H](CO)[C@@H](O)[C@H](O)[C@H]2O)[C@@H](C)O1 (stereo partly specified)
Response: active

Prompt: Similarly, C[C@]12CC(O)C3[C@@H](CCC4C[C@@H](O)CC[C@@]43CO)[C@@]1(O)CC[C@@H]2C1=CC(=O)OC1 (stereo partly specified) ?
Response: active
